Measured normalized growth accompanies every entry in the list below.
Test: chemical genetic growth profiling, strain panel (AID 1159580);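 note: tested at 20 µM; growth read once vehicle control cultures reached saturation at 30 °C; 1 = growth at the plate median or of vehicle wells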
Setup conditions: S. cerevisiae deletion strains, growth OD, locus YJL095W, strain BCK1 (second series), stronger effect = lower value
Among all 5,500 compounds or so, about 2,000 (36%) were called active. Not shown: some 18% with an inconclusive outcome. Some of the results follow.
I'd appreciate a reply containing only the number, no unit.

The reported value for CC(C)=CCc1c2c(c(O)c3c(=O)c(O)c(-c4ccccc4)oc13)C=CC(C)(C)O2 in terms of normalized growth is 0.628

Summary for this molecule, COc1ccc(-c2cc(=O)c3ccccc3o2)cc1 : normalized growth is 0.707

For record CC1=CCc2c(cc3oc(C)cc(=O)c3c2O)OC1 the listed normalized growth is 0.98

Per the record, CC(C)Oc1ccc2c(=O)cc(-c3ccccc3)oc2c1 has normalized growth of 0.948

Entry O=c1c(-c2ccc(O)cc2)coc2cc(O)cc(O)c12 , normalized growth reported as 1.01

Continuing:
// normalized growth value for O=c1c2ccccc2[se]n1-c1ccccc1 : 0.0731

---

Test: chemical genetic growth profiling, strain panel (AID 1159580)
Setup conditions: S. cerevisiae deletion strains, growth OD, locus YJL166W, strain qcr8, stronger effect = lower value
Hit rate of the full screen: of about 5,500 compounds, about 2,000 (36%) were called active. Another 18% or so got no clear call; they are omitted. The list shows a part of the results.
normalized growth for assorted compounds
Lab note: record just the number, no unit beside it.

Example cases with answers are listed next.
Sample COc1cc2cc[n+]3cc4c(OC)c(OC)ccc4cc3c2cc1OC ; normalized growth observed: 0.984

Briefly, normalized growth measured for Cn1c(=O)c2[nH]c(C3CCCC3)nc2n(C)c1=O : 0.984

normalized growth for C/C(=C\C(=O)OCCCCCCCCC(=O)O)C[C@@H]1OC[C@H](C[C@@H]2O[C@H]2[C@@H](C)[C@H](C)O)[C@@H](O)[C@H]1O is 1

Just so you know, measured normalized growth for CC(=O)O[C@@H]1CC2C(C)(C)[C@H](O)C[C@H](O)[C@]2(C)C2CC[C@@]3(C)[C@H](c4ccoc4)OC(=O)[C@H]4O[C@]43[C@@]21C (stereo not given in full) came out at 0.99

COc1cc2c(cc1OC)-c1cc3ccc(OC)c(OC)c3c[n+]1CC2 yielded normalized growth of 0.974

***
get_value(item= O=c1c(-c2ccccc2)coc2cc(O)cc(O)c12 , readout=normalized growth) returns 0.966

Measured normalized growth, CCCCOc1cc(CC2CNC(=O)N2)ccc1OC (stereo not given) : 0.996

// normalized growth value for COc1ccc(-c2coc3cc(OC(C)=O)cc(OC(C)=O)c3c2=O)cc1 : 0.944

Notebook: CC(=O)O[C@@H]1CC2C(C)(C)CCC(=O)[C@]2(C)C2CC[C@@]3(C)[C@H](c4ccoc4)OC(=O)C4OC43[C@@]21C (stereo not given in full) , normalized growth read as 1.02

Documented normalized growth of CCN(CC)CCNc1ccc(CO)c2sc3ccccc3c(=O)c12 : 1.02

For reference, reported normalized growth for NCC(=O)CCC(=O)O stands at 0.924

---

The following molecules are listed with their measured normalized growth values.
Test: chemical genetic growth profiling, strain panel (AID 1159580)
Setup conditions: S. cerevisiae deletion strains, growth OD, locus YHR013C, strain ard1, stronger effect = lower value
The whole screen tested about 5,500 compounds, of which about 2,000 (36%) were called active. About 18% were inconclusive and are not listed. This is one part of the list.
Write the number on its own, no unit after it.

Sample C[n+]1cc2c3c(ccc2c2ccc4cc5c(cc4c21)OCO5)OCO3 ; normalized growth observed: 0.319

Just so you know, measured normalized growth for COc1c(O)cc2c(-c3ccccc3)cc(=O)oc2c1OC came out at 0.978

Reported normalized growth of COC(=O)C1=C(C)NC(C)=C(C(=O)OCC(C)C)C1c1ccccc1[N+](=O)[O-] (stereo not drawn) : 0.209

Entry CCC(CCC(C)[C@H]1CCC2C3CC=C4C[C@@H](O)CC[C@]4(C)C3CC[C@@]21C)C(C)C (stereo partly drawn) ; normalized growth = 1.04

Recorded result, COc1ccc2cc3[n+](cc2c1OC)CCc1cc2c(cc1-3)OCO2 , normalized growth: 0.943

Next:
# molecule CC(=O)OCC(=O)[C@@]1(O)CCC2C3CC[C@@H]4C[C@H](O)CC[C@]4(C)C3C(=O)C[C@@]21C (stereo partly drawn) ; its normalized growth = 1.03

normalized growth recorded for this molecule, O=c1cc(-c2cccc(O)c2)oc2ccc(O)cc12 , is 0.953

Notebook: CC(=O)[C@H]1CCC2C3CC=C4C[C@@H](OC(=O)CCC(=O)O)CC[C@]4(C)C3CC[C@@]21C (stereo partly drawn) , normalized growth read as 0.941

// normalized growth lookup, molecule = COc1c(O)cccc1O , result: 1.04

The molecule listed as COc1cccc(-c2cc(=O)c3ccc(OC)cc3o2)c1 has a reported normalized growth of 0.852

# normalized growth (molecule: CC(=O)OCC(=O)[C@H]1CCC2C3CC=C4C[C@@H](O)CC[C@]4(C)C3CC[C@@]21C (stereo partly drawn) ) is 0.87

O=c1cc(-c2ccc(O)cc2)oc2ccc(O)cc12 yielded normalized growth of 0.938

Consider CC(=O)Oc1c(-c2ccccc2)oc2c(CC=C(C)C)c3c(c(OC(C)=O)c2c1=O)C=CC(C)(C)O3 . Its measured normalized growth is 0.989

---

Listing of entries alongside the reported normalized growth.
Test: chemical genetic growth profiling, strain panel (AID 1159580);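 note: tested at 20 µM; growth read once vehicle control cultures reached saturation at 30 °C; 1 = growth at the plate median or of vehicle wells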
Setup conditions: S. cerevisiae deletion strains, growth OD, locus YJL154C, strain vps35, stronger effect = lower value
Out of some 5,500 compounds screened, about 2,000 (36%) were called active. About 18% were inconclusive and are not listed. The list shows a part of the results.
Hey, just send me the number, nothing else.

These solved cases illustrate the format of a correct answer.
Recorded normalized growth (molecule CN1CCN2c3ccccc3Cc3ccccc3C2C1 (stereo unspecified) ): 1

The molecule listed as C=CCCCCCCCCCCCC(O)CC(O)CO (stereo unspecified) has a reported normalized growth of 0.987

// Cn1c(=O)c2[nH]c(C3CCCC3)nc2n(C)c1=O : normalized growth value = 0.995

Form field normalized growth, entry CC(C)c1ccc2c(c1O)CC[C@H]1C3=C(CC[C@]21C)C(=O)OC3 : 0.95

Next:
# normalized growth (molecule: CC[N+]1(C)CCCC(OC(=O)C(O)(c2ccccc2)c2ccccc2)C1 (stereo unspecified) ) is 1.02

Measured normalized growth, O=C1CC[C@]23C=CC(=O)NCCCCNCCCNC(=O)/C=C/c4ccc(c2c4)O[C@@H]3C1 : 1.01

---

Test: chemical genetic growth profiling, strain panel (AID 1159580);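 note: tested at 20 µM; growth read once vehicle control cultures reached saturation at 30 °C; 1 = growth at the plate median or of vehicle wells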
Setup conditions: S. cerevisiae deletion strains, growth OD, locus YER110C, stronger effect = lower value
Among all 5,500 compounds or so, about 2,000 (36%) were called active. Not shown: some 18% with an inconclusive outcome. This is one part of the list.
Exam item: assign Fulfilled to entries whose normalized growth is below 1 and Not fulfilled to entries at or above 1. Note that a value of exactly 1 receives Not fulfilled.

Prompt: Is 1 strictly greater than the compound's reported normalized growth? compound: Cc1cc(=O)c2c(O)c3c(cc2o1)OC(C)(C)CC3
Completion: Fulfilled

Prompt: I'd appreciate it if you could check whether CCN(CCCCOC(=O)c1ccc(OC)c(OC)c1)C(C)Cc1ccc(OC)cc1 (stereo unspecified) has normalized growth smaller than 1.
Completion: Fulfilled

Prompt: Determine if Cc1coc2ccccc2c1=O shows normalized growth strictly lower than 1.
Completion: Not fulfilled

Continuing:
Prompt: Report whether reported normalized growth is lower than 1 (strictly) for CC1=CCc2c(cc3oc(C)cc(=O)c3c2O)OC1
Completion: Fulfilled

---

Test: chemical genetic growth profiling, strain panel (AID 1159580);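 note: tested at 20 µM; growth read once vehicle control cultures reached saturation at 30 °C; 1 = growth at the plate median or of vehicle wells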
Setup conditions: S. cerevisiae deletion strains, growth OD, locus YLR357W, strain rsc2, stronger effect = lower value
Hit rate of the full screen: of about 5,500 compounds, about 2,000 (36%) were called active. Roughly 18% stayed inconclusive and do not appear here. Some of the results follow.
Hi! Just check whether normalized growth is below 0.9. Below gives rule met, equal or above gives rule not met.

Prompt: Given the entry COC(=O)C1=C(C)NC(C)=C(C(=O)OC)C1c1ccccc1[N+](=O)[O-] , would its reported normalized growth be below 0.9?
Completion: rule not met

Others:
Prompt: Is the reported normalized growth for CC(=O)Oc1c(-c2ccccc2)oc2c(CC=C(C)C)c3c(c(OC(C)=O)c2c1=O)C=CC(C)(C)O3 strictly below 0.9?
Completion: rule not met

Prompt: Find out if reported normalized growth for CC(=O)O[C@H]1C[C@@]2(C)[C@H](c3ccoc3)OC(=O)[C@H]3O[C@]32[C@@]2(C)C1[C@]1(C)C(C[C@H]2OC(C)=O)C(C)(C)[C@H](OC(C)=O)C[C@@H]1OC(C)=O (some centres undefined) is less than 0.9
Completion: rule not met

Prompt: Please state whether normalized growth is below 0.9 for CC(=O)O[C@@H]1CC2C(C)(C)C(=O)CC[C@]2(C)C2CC[C@@]3(C)[C@H](c4ccoc4)OC(=O)C4OC43[C@@]21C (some centres undefined)
Completion: rule not met

Prompt: For COC(=O)C1=C(C)NC(C)=C(C(=O)OCCN(C)Cc2ccccc2)C1c1cccc([N+](=O)[O-])c1 (centres undefined) , is the recorded normalized growth below the cut-off of 0.9?
Completion: rule not met

Prompt: Please determine if CC(C)=CCc1c2c(c(O)c3c(=O)c(O)c(-c4ccccc4)oc13)C=CC(C)(C)O2 is below 0.9 in terms of normalized growth.
Completion: rule met

Prompt: In plain terms, does CC(=O)O.CC(=O)O.[Cd] come in under 0.9 for normalized growth?
Completion: rule met

Prompt: Quick check: normalized growth of CC(=O)Nc1ccc(O)cc1 under 0.9?
Completion: rule not met

Prompt: Below 0.9 on normalized growth? Entry O=C1CCc2cc(OCCCCc3nnnn3C3CCCCC3)ccc2N1
Completion: rule not met
